tested on: HeLa; test: Antiproliferative activity against human HeLa cells assessed as cell growth inhibition at 100 uM by MTT assay relative to control; assay type: functional; settings: read-out: GI
quantity: inhibition of growth at 100 µM (%)
Dear colleague, please return just the value in %, with no unit written.

Lookup: inhibition of growth at 100 µM / HeLa / COc1cc(-c2nc(N)n(CC(=O)Nc3ccc(Cl)cc3)n2)cc(OC)c1OC
30

Follow-up item: COc1cccc(C(=O)Cn2nc(-c3cc(OC)c(OC)c(OC)c3)nc2N)c1
27

Follow-up item: COc1ccc(NC(=O)Cn2nc(-c3cc(OC)c(OC)c(OC)c3)nc2N)cc1
30

Follow-up item: COc1cc(-c2nc(N)n(Cc3ccc([N+](=O)[O-])cc3)n2)cc(OC)c1OC
58

Follow-up item: COc1cc(-c2nc(N)n(CC(=O)c3ccccc3)n2)cc(OC)c1OC
42

###

system: MCF7; assay: Antiproliferative activity against human MCF7 cells assessed as cell growth inhibition at 100 uM by MTT assay relative to control; type: functional; conditions: read-out: GI
Give measured inhibition of growth at 100 µM for each item. Keep answers brief.
Kindly report the value followed by its unit.

Quick check: inhibition of growth at 100 µM of COc1ccc(NC(=O)Cn2nc(-c3cc(OC)c(OC)c(OC)c3)nc2N)cc1OC ?
12%

Follow-up item: COc1cc(-c2nc(N)n(Cc3cc(OC(F)(F)F)cc(OC(F)(F)F)c3)n2)cc(OC)c1OC
55%

Follow-up item: COc1cc(-c2nc(N)n(Cc3ccc(Cl)cc3)n2)cc(OC)c1OC
49%

Follow-up item: COc1ccc(NC(=O)Cn2nc(-c3cc(OC)c(OC)c(OC)c3)nc2N)cc1
50%

Follow-up item: COc1cc(-c2nc(N)n(CC(=O)Nc3ccc(Cl)cc3)n2)cc(OC)c1OC
37%

Follow-up item: COc1cc(-c2nc(N)n(CC(=O)Nc3ccc(N(C)C)cc3)n2)cc(OC)c1OC
14%

Follow-up item: COc1cc(-c2nc(N)n(CC(=O)Nc3ccc(C(C)(C)C)cc3)n2)cc(OC)c1OC
93%

Follow-up item: COc1cc(-c2nc(N)n(CC(=O)c3cccc(Br)c3)n2)cc(OC)c1OC
59%

Follow-up item: COc1cc(-c2nc(N)n(CC(=O)Nc3c(C)cc(C)cc3C)n2)cc(OC)c1OC
34%

Follow-up item: COc1cc(-c2nc(N)n(CC(=O)Nc3ccc(C(C)C)cc3)n2)cc(OC)c1OC
8%

Follow-up item: COc1cc(-c2nc(N)n(Cc3ccc(C)cc3)n2)cc(OC)c1OC
55%

Follow-up item: CCc1ccc(NC(=O)Cn2nc(-c3cc(OC)c(OC)c(OC)c3)nc2N)cc1
31%

Follow-up item: COc1cc(-c2nc(N)n(CC(=O)c3ccc(F)c(F)c3)n2)cc(OC)c1OC
48%

Follow-up item: COc1cc(-c2nc(N)n(CC(=O)c3ccc(Br)cc3)n2)cc(OC)c1OC
27%

Follow-up item: COc1cc(-c2nc(N)n(Cc3cccc(C#N)c3)n2)cc(OC)c1OC
43%

Follow-up item: COc1cc(-c2nc(N)n(CC(=O)Nc3ccc(C)c(C)c3)n2)cc(OC)c1OC
32%

Follow-up item: COc1cc(-c2nc(N)n(Cc3ccccc3F)n2)cc(OC)c1OC
33%
